Tested on: PXR:RXRa (NR concentration 270 nM, RXRa partner concentration 90 nM)
procedureDetails: PBM binding z-score (relative to random genomic background probes); higher = stronger binding; sequences stand for … in GC…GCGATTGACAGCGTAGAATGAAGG
Rule: PBM binding z-score of 1 or more gives condition met; anything lower gives condition not met.

[
  {
    "recordSequence": "TCTCGGGGGACACGAAAGGTCAGAGCTCGACATC",
    "classification": "condition met"
  },
  {
    "recordSequence": "TCGAGTAGTTTAGTCGGGGCATTCAGCCAACATA",
    "classification": "condition not met"
  },
  {
    "recordSequence": "GCTCGCAGGACAAGGTCAGAGCTTTGTCCGTAGA",
    "classification": "condition met"
  },
  {
    "recordSequence": "GCCAGCAGGCCATTTGGGTCACTCAATGACGGGC",
    "classification": "condition not met"
  },
  {
    "recordSequence": "CCTACTGGGCCAAAGGTAATTGATTCCAATGCTC",
    "classification": "condition not met"
  },
  {
    "recordSequence": "ATCGACAGGTCGACGAGGTGAGTATACACCGTTT",
    "classification": "condition not met"
  },
  {
    "recordSequence": "GTTACAGGGTCAGCTAGAGGCCAGAGTATGGAAA",
    "classification": "condition met"
  },
  {
    "recordSequence": "CCGACTGGGGCAGAAACGTTACCATACCATCCGG",
    "classification": "condition not met"
  },
  {
    "recordSequence": "CCGTACGGGTCACTCCAGGTTATAGCATCGGAGT",
    "classification": "condition met"
  },
  {
    "recordSequence": "ACTCGGAGGACAAAAGTCAGAGCTACGCCAGTGA",
    "classification": "condition not met"
  },
  {
    "recordSequence": "TTTAGTTGGTCACGGAGGTCACACACGACGGGTA",
    "classification": "condition met"
  },
  {
    "recordSequence": "CCGACTGGGGCAAGGTGACCATAACGCACAGCCA",
    "classification": "condition not met"
  },
  {
    "recordSequence": "CGTTAAAGTTCAAGGTAACGTAACAGAAAGCAGC",
    "classification": "condition met"
  },
  {
    "recordSequence": "GGAACGAGGGCAAGGTGATAGCAGAGTTTGATGG",
    "classification": "condition not met"
  },
  {
    "recordSequence": "GCTGCTGGGTCAACTGATGGTCAGCTAAAGCTCG",
    "classification": "condition met"
  },
  {
    "recordSequence": "ATCTCTAGGTAAGACTCAGTACAGTGAAGAACGC",
    "classification": "condition not met"
  },
  {
    "recordSequence": "GCAGACAGGTGAAACGCAGGTAACTCACGGTGGC",
    "classification": "condition not met"
  },
  {
    "recordSequence": "GCTAGCGGGCCATTTGGGTCACTCAATGACGGGC",
    "classification": "condition not met"
  },
  {
    "recordSequence": "ATCGAAAGGTCGTGGTGAGTATAGAGAAAGGGAA",
    "classification": "condition met"
  },
  {
    "recordSequence": "CCTACTGGGCCATTCCGAGGTCATTGATCATATG",
    "classification": "condition met"
  },
  {
    "recordSequence": "TCTAGTTGGTCACAGGTCACACACTCGAAATGCG",
    "classification": "condition met"
  }
]

* * *

Tested on: PPARa:RXRa (NR concentration 270 nM, RXRa partner concentration 90 nM)
procedureDetails: PBM binding z-score (relative to random genomic background probes); higher = stronger binding; sequences stand for … in GC…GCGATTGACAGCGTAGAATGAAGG
Criterion: PBM binding z-score meeting or surpassing 3. Met: true (1). Not met: false (0).

[
  {
    "recordSequence": "TCTCGTAGGACACGAAAGGTCAGAGCTCGACATC",
    "classification": "true (1)"
  },
  {
    "recordSequence": "TGAATGAGGTTATAGATCAGGGAACGTGGCGTCG",
    "classification": "false (0)"
  },
  {
    "recordSequence": "AGAATGAGGTTATTAACATCAGGGAATTGCGGTC",
    "classification": "false (0)"
  },
  {
    "recordSequence": "TCATATAGGTAAAGGTGTAAGTCGAACGATATGA",
    "classification": "false (0)"
  },
  {
    "recordSequence": "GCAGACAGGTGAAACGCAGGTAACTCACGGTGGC",
    "classification": "false (0)"
  },
  {
    "recordSequence": "TCTGCTAGGTCAGTTGGTCATCTAACGAGCTGCC",
    "classification": "false (0)"
  },
  {
    "recordSequence": "CCTACTGGGCCACGAGAGGTCATTGATTCAGTGA",
    "classification": "true (1)"
  },
  {
    "recordSequence": "TTACCAAGTTGAGCTGAGGTCGTTGATCCAACTC",
    "classification": "false (0)"
  },
  {
    "recordSequence": "CAAACTAGGTCACCGGAAGGTCAAAGACCGCATG",
    "classification": "true (1)"
  },
  {
    "recordSequence": "ACTCGGAGGACAAAGGTCAGCGCTACGCCAGTGA",
    "classification": "true (1)"
  },
  {
    "recordSequence": "TCTTGGAGATCAGCAGGTTAAGAAAGCTGGCCAA",
    "classification": "false (0)"
  },
  {
    "recordSequence": "CCGACTGGGGCAAGGTTACCAAAACGCACAGCCA",
    "classification": "false (0)"
  },
  {
    "recordSequence": "ACTAGTTGGTCAGCTGAGGTCTCACACAATTCGG",
    "classification": "false (0)"
  },
  {
    "recordSequence": "ACTTACGGGTGAACGAGGTTATAGCACGCGTATA",
    "classification": "false (0)"
  },
  {
    "recordSequence": "TCTAGTTGGTCACGGAGGTGACACACGACGGGTA",
    "classification": "false (0)"
  },
  {
    "recordSequence": "GCTGCTAGGTCAAATGATGGTCAGCTAAAGCTCG",
    "classification": "true (1)"
  },
  {
    "recordSequence": "AATACAGGGGCATCGTAGGCCAGAGTACGCACAG",
    "classification": "false (0)"
  },
  {
    "recordSequence": "AACACAGGGTCATCGTAGGCCAGAGTACGCACAG",
    "classification": "true (1)"
  },
  {
    "recordSequence": "ATCGAAAGGTCGTGATGTGAGTATACAGAAAGGC",
    "classification": "true (1)"
  }
]

* * *

Test system: RARb homodimer (NR concentration 270 nM)
procedureDetails: PBM binding z-score (relative to random genomic background probes); higher = stronger binding; sequences stand for … in GC…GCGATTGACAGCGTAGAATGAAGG

[
  {
    "recordSequence": "TCTTCTAGATCAACAGGAGGTTAAGAAAGATCGA",
    "PBM binding z-score": 0.617
  },
  {
    "recordSequence": "TTTCAAAGTTCAAAGGTAACGTAAGTATCCACAC",
    "PBM binding z-score": 3.87
  },
  {
    "recordSequence": "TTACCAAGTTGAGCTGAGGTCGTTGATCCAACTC",
    "PBM binding z-score": 0.944
  },
  {
    "recordSequence": "TATGCTAGGTCAACGATGGTCAGCTAATCTGCTA",
    "PBM binding z-score": 3.36
  },
  {
    "recordSequence": "CGAACGTGGGCATGAGTTGATAGCAAATGCCGAT",
    "PBM binding z-score": -0.844
  },
  {
    "recordSequence": "TTACCAAGGTGAGCTGCGGTCGTTGATCCAACTC",
    "PBM binding z-score": 0.677
  },
  {
    "recordSequence": "CAAACTAGGTCACAGAGGTCAAAGTCCGTGCGTA",
    "PBM binding z-score": 5.8
  },
  {
    "recordSequence": "TAACCAAGGTGAGCTGAGGTCGTTGATCCAACTC",
    "PBM binding z-score": 1.63
  },
  {
    "recordSequence": "CCTACTGGGCCAAGGTCAGTGATCAGTCAAAGCA",
    "PBM binding z-score": 2.89
  },
  {
    "recordSequence": "CCGACTGGGACAAGGTTACCATAACGCACAGCCA",
    "PBM binding z-score": 0.97
  },
  {
    "recordSequence": "CGAACTAGGTCATCCAGGACAGTGCATACATTGA",
    "PBM binding z-score": 3.21
  }
]
